Reported pKa values follow for various compounds
- Assay Notes: physchem
- Study Conditions: human
Kindly provide the number alone.

COc1ccc([C@H](N[C@@H]2CC[C@@H](C(=O)N3CCC(C(=O)N4CCCC4)(c4ccccc4)CC3)C(C)(C)C2)C(F)(F)F)cc1: 4.24

We next turn to a different compound, shown below.
I am curious: what pKa value has been reported for COc1ccc([C@@H](C)N[C@@H]2CC[C@@H](C(=O)N3CCC(C(=O)N4CCCC4)(c4ccccc4)CC3)C(C)(C)C2)cc1 ?
10.2
